meta.source: ChEMBL document CHEMBL6120971

We begin with a simple list: items and their reported Activity.
# MEASURED ON: von Hippel-Lindau disease tumor suppressor/Hepatocyte growth factor receptor (Homo sapiens, UniProt P08581+P40337)
# Sequence (P40337 whole entry partner): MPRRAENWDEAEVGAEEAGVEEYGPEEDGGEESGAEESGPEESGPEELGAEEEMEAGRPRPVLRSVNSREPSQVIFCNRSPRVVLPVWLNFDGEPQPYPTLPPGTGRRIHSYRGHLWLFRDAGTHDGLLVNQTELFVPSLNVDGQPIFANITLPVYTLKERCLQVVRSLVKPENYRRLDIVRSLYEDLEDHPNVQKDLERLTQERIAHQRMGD
# Sequence (P08581 25-1390 limits assumed): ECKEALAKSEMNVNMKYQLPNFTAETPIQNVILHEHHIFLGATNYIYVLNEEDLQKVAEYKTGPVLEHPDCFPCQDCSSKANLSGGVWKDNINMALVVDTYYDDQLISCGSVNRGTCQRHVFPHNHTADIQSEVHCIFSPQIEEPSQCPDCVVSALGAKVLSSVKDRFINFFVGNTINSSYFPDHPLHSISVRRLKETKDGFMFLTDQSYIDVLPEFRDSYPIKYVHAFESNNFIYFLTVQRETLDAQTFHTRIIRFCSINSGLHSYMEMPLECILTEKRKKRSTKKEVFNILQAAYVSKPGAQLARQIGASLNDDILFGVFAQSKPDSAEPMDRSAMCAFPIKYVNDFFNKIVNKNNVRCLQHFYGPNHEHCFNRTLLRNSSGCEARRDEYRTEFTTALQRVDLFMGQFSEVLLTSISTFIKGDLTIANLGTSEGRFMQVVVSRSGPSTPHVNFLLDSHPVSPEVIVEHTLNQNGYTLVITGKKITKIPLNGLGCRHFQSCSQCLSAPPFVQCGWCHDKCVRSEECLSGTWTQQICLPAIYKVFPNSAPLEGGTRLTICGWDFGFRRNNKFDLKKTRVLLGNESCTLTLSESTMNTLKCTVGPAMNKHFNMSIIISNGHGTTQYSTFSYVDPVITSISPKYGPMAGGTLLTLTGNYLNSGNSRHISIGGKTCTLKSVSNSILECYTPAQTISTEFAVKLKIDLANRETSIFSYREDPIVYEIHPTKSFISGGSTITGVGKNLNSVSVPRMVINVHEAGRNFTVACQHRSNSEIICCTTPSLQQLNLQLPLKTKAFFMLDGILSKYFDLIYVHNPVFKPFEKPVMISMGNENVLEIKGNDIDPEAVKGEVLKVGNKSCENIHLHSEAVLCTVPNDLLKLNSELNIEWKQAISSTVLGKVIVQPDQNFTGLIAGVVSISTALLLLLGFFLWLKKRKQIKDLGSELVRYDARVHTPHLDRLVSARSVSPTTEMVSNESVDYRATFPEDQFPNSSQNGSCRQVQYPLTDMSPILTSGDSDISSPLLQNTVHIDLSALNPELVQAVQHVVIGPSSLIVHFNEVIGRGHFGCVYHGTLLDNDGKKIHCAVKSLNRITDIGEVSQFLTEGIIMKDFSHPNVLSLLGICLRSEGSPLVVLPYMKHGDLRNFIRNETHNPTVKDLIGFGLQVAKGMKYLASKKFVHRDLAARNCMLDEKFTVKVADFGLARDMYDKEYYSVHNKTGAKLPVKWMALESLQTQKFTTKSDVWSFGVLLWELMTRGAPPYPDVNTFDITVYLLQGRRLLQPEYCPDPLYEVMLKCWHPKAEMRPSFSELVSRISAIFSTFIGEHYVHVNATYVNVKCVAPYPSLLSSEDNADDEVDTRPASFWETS
# METHOD NOTES: PROTAC activity at VHL/c-MET in human MKN-45 cells assessed as induction of c-MET degradation by measuring residual activity at 100 nM incubated for 24 hrs by Western blot analysis (reference value: 100 %)
# Format: cell-based
OUTCOME MEASURE: Activity (%)

[[record]]
smiles_code = "Cc1ncsc1-c1ccc([C@H](C)NC(=O)[C@@H]2C[C@@H](O)CN2C(=O)[C@@H](NC(=O)CCOCCOCCOCCC(=O)N2CCC(n3cc(-c4cnc(N)c(O[C@H](C)c5c(Cl)ccc(F)c5Cl)c4)cn3)CC2)C(C)(C)C)cc1"
measured = 106

[[record]]
smiles_code = "Cc1ncsc1-c1ccc([C@H](C)NC(=O)[C@@H]2C[C@@H](O)CN2C(=O)[C@@H](NC(=O)CCOCCOCCOCCOCCC(=O)N2CCC(COc3cnc(-c4cccc(Cn5nc(-c6cccc(C#N)c6)ccc5=O)c4)nc3)CC2)C(C)(C)C)cc1"
measured = 62

